# Tested on: Setaria faberi (SETFA)
# protocol.details: Post-emergence herbicidal glasshouse test on Setaria faberi
# Format: in vivo
# setup.conditions: post-emergence; 1000 g/h; evaluated after 13 days
readout.label: POST Application SETFA herbicidal damage (five point scale)

compound=Cn1nc(O)c(-c2ccc(C(F)(F)F)cc2S(C)(=O)=O)c(O)c1=O measurement="5 (5=80-100% damage)"

POST Application SETFA herbicidal damage (five point scale) lookup needed for Cn1ncc(-c2cc(Cl)ccc2Cl)c(O)c1=O , thanks.
1 (1=0-19% damage)

POST Application SETFA herbicidal damage (five point scale) lookup needed for Cc1cc(-c2cnn(C)c(=O)c2O)c(=O)n(-c2ccccc2)c1 , thanks.
3 (3=40-59% damage)
